# System: Staphylococcus aureus
# method.summary: Antibacterial activity against efflux-resistant Staphylococcus aureus B0331 by agar microdilution method
# Format: functional
quantity: MIC

>>> reported_measurement("CC[C@H]1OC(=O)[C@H](C)[C@@H](O[C@H]2C[C@@](C)(OC)[C@@H](O)[C@H](C)O2)[C@H](C)[C@@H](O[C@@H]2O[C@H](C)C[C@H](N(C)C)[C@H]2O)[C@](C)(O)C[C@@H](C)CN(C)[C@H](C)[C@@H](O)[C@]1(C)O")
"> 64 µg/mL"
>>> reported_measurement("O=C(O)c1cn(C2CC2)c2cc(N3CCNCC3)c(F)cc2c1=O")
"≤ 0.125 µg/mL"
>>> reported_measurement("C=CCO[C@]1(C)C[C@@H](C)C(=O)N[C@H](C)[C@H](O)[C@@](C)(O)[C@@H](CC)OC(=O)[C@H](C)C(=O)[C@H](C)[C@H]1O[C@@H]1O[C@H](C)C[C@H](N(C)C)[C@H]1O")
"> 64 µg/mL"

* * *

# Test system: Streptococcus pyogenes
# method.summary: Antibacterial activity against efflux-resistant Streptococcus pyogenes B0545 by agar microdilution method
# Format: functional
quantity: MIC

>>> reported_measurement("O=C(O)c1cn(C2CC2)c2cc(N3CCNCC3)c(F)cc2c1=O")
"≤ 0.125 µg/mL"
>>> reported_measurement("CC[C@H]1OC(=O)[C@H](C)C(=O)[C@H](C)[C@@H](O[C@@H]2O[C@H](C)C[C@H](N(C)C)[C@H]2O)[C@](C)(OCC(O)CNC2CN(S(=O)(=O)c3ccc4ccncc4c3)CCN2)C[C@@H](C)NC(=O)[C@H](C)[C@H](O)[C@@]1(C)O (stereo not given in full)")
"16 µg/mL"
>>> reported_measurement("C=CCO[C@]1(C)C[C@@H](C)NC(=O)[C@H](C)[C@H](O)[C@@](C)(O)[C@@H](CC)OC(=O)[C@H](C)C(=O)[C@H](C)[C@H]1O[C@@H]1O[C@H](C)C[C@H](N(C)C)[C@H]1O")
"8 µg/mL"
>>> reported_measurement("CC[C@H]1OC(=O)[C@H](C)C(=O)[C@H](C)[C@@H](O[C@@H]2O[C@H](C)C[C@H](N(C)C)[C@H]2O)[C@](C)(OCC(O)CNCCNc2cc3c(=O)c(C(=O)O)cn(C4CC4)c3cc2Cl)C[C@@H](C)NC(=O)[C@H](C)[C@H](O)[C@@]1(C)O (stereo not given in full)")
"4 µg/mL"
>>> reported_measurement("CC[C@H]1OC(=O)[C@H](C)C(=O)[C@H](C)[C@@H](O[C@@H]2O[C@H](C)C[C@H](N(C)C)[C@H]2O)[C@](C)(OCC=Cc2cnc3ccccc3c2)C[C@@H](C)C(=O)[C@H](C)[C@H]2NC(=O)O[C@@]21C")
"≤ 0.125 µg/mL"

* * *

# System: Staphylococcus aureus
# method.summary: Antibacterial activity against inducible macrolide-lincosamide-streptogramin B-resistant Staphylococcus aureus B0538 by agar microdilution method
# Assay type: functional
quantity: MIC

>>> reported_measurement("CC[C@H]1OC(=O)[C@H](C)[C@@H](O[C@H]2C[C@@](C)(OC)[C@@H](O)[C@H](C)O2)[C@H](C)[C@@H](O[C@@H]2O[C@H](C)C[C@H](N(C)C)[C@H]2O)[C@](C)(O)C[C@@H](C)CN(C)[C@H](C)[C@@H](O)[C@]1(C)O")
"> 64 µg/mL"
>>> reported_measurement("CC[C@H]1OC(=O)[C@H](C)C(=O)[C@H](C)[C@@H](O[C@@H]2O[C@H](C)C[C@H](N(C)C)[C@H]2O)[C@](C)(OCCCC2CNc3ccccc3C2)C[C@@H](C)NC(=O)[C@H](C)[C@H](O)[C@@]1(C)O (stereo partly drawn)")
"> 64 µg/mL"
>>> reported_measurement("CC[C@H]1OC(=O)[C@H](C)[C@@H](O[C@@H]2C[C@@](C)(OC)[C@@H](O)[C@H](C)O2)[C@H](C)[C@@H](O[C@@H]2O[C@H](C)C[C@H](N(C)C)[C@H]2O)[C@](C)(OC/C=C/NCCc2ccc([N+](=O)[O-])cc2)C[C@@H](C)C(=O)N[C@H](C)[C@H](O)[C@@]1(C)O")
"> 64 µg/mL"
